# System: NCI-H226 lung
# assayMethodText: NCI tumour cell line growth inhibition, 48 h
readoutType: TGI

COc1cc(/C=N/Nc2ncnc3c2cnn3Cc2ccccc2)ccc1O :: > 25 µM
CC1=C(c2ccc(C)cc2)NC(=S)C(C)C(c2ccc(C)cc2)=N1 (stereo not given) :: > 100 µM

Req: Query (compound): CCCCC1=CC1(C#N)[N+](=O)[O-] (stereo not given) ; field requested: TGI
Resp: > 100 µM

Req: # iterate: "COc1ccc(C(=O)c2cc(OC)c(OC)c(OC)c2)cc1/C=C/C(=O)c1ccc2c(c1)OCO2"
Resp: 6.32 µM

Req: # iterate: "CSc1n[nH]c2n[nH]c(C)c12"
Resp: > 100 µM

Req: # iterate: "O=C1CCCC(=O)C1C(=O)c1ccc(C(F)(F)F)cc1[N+](=O)[O-]"
Resp: > 100 µM

Req: # iterate: O=C1CSC(c2ccccc2[N+](=O)[O-])N1c1ccc(-n2c(-c3ccccc3)nc3ccccc3c2=O)cc1 (stereo not given)
Resp: 89.2 µM
